Listed here: items and their measured AUC.
Assay: Plasma pharmacokinetics of sacubitril/valsartan analytes at steady state
Format: in vivo, human
Settings: male, human, plasma, oral, 400 mg, AUCtau,ss, Mean ± SD, plasma; Sacubitril/valsartan alone (400 mg q.d., steady state, Day 7)
Unit ng·h/mL implied. Number only.

A selection of reference data follows.
{"Molecule Smiles": "CCCCC(=O)N(Cc1ccc(-c2ccccc2-c2nnn[nH]2)cc1)[C@H](C(=O)O)C(C)C", "Unit String": "ng·h/mL", "AUC": 33000}
{"Molecule Smiles": "C[C@H](C[C@@H](Cc1ccc(-c2ccccc2)cc1)NC(=O)CCC(=O)O)C(=O)O", "Unit String": "ng·h/mL", "AUC": 143000}

Moving on to the next molecule.
# return recorded AUC for entry CCOC(=O)[C@H](C)C[C@@H](Cc1ccc(-c2ccccc2)cc1)NC(=O)CCC(=O)O
3400

###

Test: Plasma pharmacokinetics of sildenafil and N-desmethyl-sildenafil
Type: in vivo, human
Conditions: male, human, plasma, oral, 50 mg
Quantity: half-life (min)
Unit min implied. Number only.

# return recorded half-life for entry CCCc1nn(C)c2c(=O)[nH]c(-c3cc(S(=O)(=O)N4CCN(C)CC4)ccc3OCC)nc12
222

###

Test: Plasma pharmacokinetics of sildenafil and N-desmethyl-sildenafil
Assay type: in vivo, human
Conditions: male, human, plasma, oral, Cmax, Mean ± SD, plasma; Sacubitril/valsartan + Sildenafil (Day 8)
Quantity: Cmax (ng/mL)
Unit ng/mL implied. Number only.

# return recorded Cmax for entry CCCc1nn(C)c2c(=O)[nH]c(-c3cc(S(=O)(=O)N4CCN(C)CC4)ccc3OCC)nc12
189
